Where do these numbers come from? They come from patent US10125098B2.

IC50 reference
- target-of-assay: human NaV1.7 (Homo sapiens, UniProt Q15858)
- Construct: permanently transfected with an expression vector containing the full-length cDNA coding for the desired human sodium channel α-subunit; expressed in transfected cells; host or cells: HEK-293
- Sequence (Q15858 1-1977 isoform Q15858-3): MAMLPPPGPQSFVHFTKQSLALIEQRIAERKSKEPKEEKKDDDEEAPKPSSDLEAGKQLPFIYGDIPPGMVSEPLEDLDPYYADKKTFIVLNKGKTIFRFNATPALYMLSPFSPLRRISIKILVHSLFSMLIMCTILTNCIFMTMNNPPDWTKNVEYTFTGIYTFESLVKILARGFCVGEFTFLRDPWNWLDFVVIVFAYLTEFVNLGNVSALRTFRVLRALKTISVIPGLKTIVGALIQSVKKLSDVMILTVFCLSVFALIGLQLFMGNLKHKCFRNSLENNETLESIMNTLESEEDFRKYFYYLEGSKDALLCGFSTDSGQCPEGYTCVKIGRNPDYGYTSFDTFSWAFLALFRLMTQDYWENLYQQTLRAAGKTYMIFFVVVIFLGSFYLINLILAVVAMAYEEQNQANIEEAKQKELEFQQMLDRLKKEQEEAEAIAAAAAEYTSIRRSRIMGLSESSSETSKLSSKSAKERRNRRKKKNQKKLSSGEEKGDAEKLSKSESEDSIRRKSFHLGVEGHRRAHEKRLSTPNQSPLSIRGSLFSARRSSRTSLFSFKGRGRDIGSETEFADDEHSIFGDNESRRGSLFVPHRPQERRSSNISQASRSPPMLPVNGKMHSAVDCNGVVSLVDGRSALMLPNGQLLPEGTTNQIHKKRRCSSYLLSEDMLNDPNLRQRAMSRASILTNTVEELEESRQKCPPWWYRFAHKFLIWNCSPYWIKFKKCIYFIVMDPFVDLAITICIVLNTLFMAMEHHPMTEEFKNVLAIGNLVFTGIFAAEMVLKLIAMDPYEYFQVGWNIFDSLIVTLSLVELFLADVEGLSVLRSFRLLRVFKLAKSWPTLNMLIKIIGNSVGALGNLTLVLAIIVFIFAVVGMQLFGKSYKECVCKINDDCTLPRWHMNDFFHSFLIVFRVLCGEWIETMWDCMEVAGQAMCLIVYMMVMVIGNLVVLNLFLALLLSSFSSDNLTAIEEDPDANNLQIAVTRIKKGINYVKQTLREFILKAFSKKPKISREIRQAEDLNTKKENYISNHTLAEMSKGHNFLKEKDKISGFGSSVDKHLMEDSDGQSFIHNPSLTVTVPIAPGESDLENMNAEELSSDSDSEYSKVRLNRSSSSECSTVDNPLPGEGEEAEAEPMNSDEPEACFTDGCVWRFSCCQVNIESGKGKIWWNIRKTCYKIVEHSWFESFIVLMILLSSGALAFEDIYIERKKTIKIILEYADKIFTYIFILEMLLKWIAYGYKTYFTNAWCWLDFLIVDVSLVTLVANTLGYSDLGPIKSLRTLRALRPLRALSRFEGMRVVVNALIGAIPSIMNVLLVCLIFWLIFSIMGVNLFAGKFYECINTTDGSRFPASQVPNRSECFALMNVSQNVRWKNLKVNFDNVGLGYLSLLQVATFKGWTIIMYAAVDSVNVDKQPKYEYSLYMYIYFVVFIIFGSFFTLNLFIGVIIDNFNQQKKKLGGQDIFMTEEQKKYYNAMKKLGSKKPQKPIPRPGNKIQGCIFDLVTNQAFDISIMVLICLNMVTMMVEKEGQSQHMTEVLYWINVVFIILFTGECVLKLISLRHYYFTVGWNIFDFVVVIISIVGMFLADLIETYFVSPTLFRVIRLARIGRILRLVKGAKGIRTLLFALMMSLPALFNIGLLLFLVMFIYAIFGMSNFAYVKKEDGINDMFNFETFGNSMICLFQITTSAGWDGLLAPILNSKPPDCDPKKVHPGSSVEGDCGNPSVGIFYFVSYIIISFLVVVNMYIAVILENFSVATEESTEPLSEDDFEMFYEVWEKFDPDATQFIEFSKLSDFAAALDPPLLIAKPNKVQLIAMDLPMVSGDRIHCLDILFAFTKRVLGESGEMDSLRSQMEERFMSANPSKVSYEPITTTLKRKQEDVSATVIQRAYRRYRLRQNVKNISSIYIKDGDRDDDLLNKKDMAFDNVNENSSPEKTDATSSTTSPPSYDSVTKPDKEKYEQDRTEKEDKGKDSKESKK
- Sequence (Q07699 19-218 partner): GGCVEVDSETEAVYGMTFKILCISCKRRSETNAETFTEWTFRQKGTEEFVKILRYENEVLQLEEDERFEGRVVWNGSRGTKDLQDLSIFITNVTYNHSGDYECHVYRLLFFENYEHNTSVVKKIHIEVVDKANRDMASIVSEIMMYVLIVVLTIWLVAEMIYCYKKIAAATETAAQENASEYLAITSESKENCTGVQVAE
- assay-method-text: Patch voltage clamp electrophysiology assay (EP), NaV1.7
- Format: cell-based
- condition-details: HEK-293 cells stably expressing NaV1.7 with β1 subunit; whole-cell patch clamp, membrane potential −60 mV (inactivated state)
Use µM as the unit, but write only the number.

molecule: O=C(O)[C@@H]1[C@@H](O)CCN1C(=O)c1cc(C2CC2)c(OCC23CC4CC(CC(C4)C2)C3)cc1F [Example 75]
unit-abbrev: µM
data-value: 1.3
//
molecule: O=C(O)[C@@H]1CCCN1C(=O)c1cc(C2CC2)c(OC2CN(C(c3ccccc3)c3ccccc3)C2)cc1F [Example 141]
unit-abbrev: µM
data-value: 6.1

Could you share which IC50 value was measured for O=C(O)C[C@@H]1CCN1C(=O)c1cc(C2CC2)c(OCC23CC4CC(CC(C4)C2)C3)cc1F [Example 215] ?
5.4

Requested read-out: IC50. Entry: O=C(O)[C@@H]1[C@H]2CC[C@H](C2)N1C(=O)c1cc(C2CC2)c(OCC23CC4CC(CC(C4)C2)C3)cc1F [Example 146]
1.5
